This collection of values is drawn from patent US8263598B2.

SYSTEM_UNDER_TEST: human B1R receptor (hB1R) (Homo sapiens, UniProt P46663)
Construct: host or cells: CHO K1 cells
Sequence (P46663 whole entry): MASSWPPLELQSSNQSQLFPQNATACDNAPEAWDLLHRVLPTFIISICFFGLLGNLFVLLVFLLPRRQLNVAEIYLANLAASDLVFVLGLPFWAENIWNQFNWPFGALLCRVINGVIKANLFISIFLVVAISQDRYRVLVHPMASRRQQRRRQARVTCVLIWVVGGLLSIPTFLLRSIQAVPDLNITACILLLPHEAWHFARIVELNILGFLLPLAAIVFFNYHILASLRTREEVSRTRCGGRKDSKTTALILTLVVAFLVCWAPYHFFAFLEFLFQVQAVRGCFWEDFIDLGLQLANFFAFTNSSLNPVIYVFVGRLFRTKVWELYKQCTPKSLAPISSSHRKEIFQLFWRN
TEST_DESCRIPTION: FLIPR Ca2+ assay on human bradykinin 1 receptor (CHO K1 hB1R cells)
Format: cell-based
STUDY_CONDITIONS: test substance 10 μM; CHO K1 cells with human B1R gene; agonist Lys-Des-Arg9-bradykinin 0.5 nM; compared to maximum achievable inhibition
Entries annotated with measured inhibition at 10 µM

{"COMPOUND": "CCC1c2cccn2CCN1C(=O)COCCN(CC(C)C)S(=O)(=O)c1c(C)cc(OC)c(C)c1C (stereo not shown) [Example 100]", "inhibition at 10 µM, %": 98}
{"COMPOUND": "COc1c(C)cc(S(=O)(=O)N(C)CCOCC(=O)N2CCn3cccc3C2C(C)(C)C)c(C)c1C (stereo not shown) [Example 27]", "inhibition at 10 µM, %": 95}
{"COMPOUND": "CCCCC1c2ccc(CN(C)C)n2CCN1C(=O)COCCN(Cc1ccccc1)S(=O)(=O)c1c(C)cc(OC)c(C)c1C (stereo not shown) [Example 120]", "inhibition at 10 µM, %": 84}
{"COMPOUND": "COc1cccc(C2c3cccn3CCN2C(=O)COCCN(C)S(=O)(=O)c2c(C)cc(OC)cc2C)c1 (stereo not shown) [Example 62]", "inhibition at 10 µM, %": 101}

====

Entries annotated with measured inhibition at 10 µM
SYSTEM_UNDER_TEST: B1R receptor of rats (rB1R) (Rattus norvegicus, UniProt P97583)
Construct: host or cells: CHO K1 cells
Sequence (P97583 whole entry): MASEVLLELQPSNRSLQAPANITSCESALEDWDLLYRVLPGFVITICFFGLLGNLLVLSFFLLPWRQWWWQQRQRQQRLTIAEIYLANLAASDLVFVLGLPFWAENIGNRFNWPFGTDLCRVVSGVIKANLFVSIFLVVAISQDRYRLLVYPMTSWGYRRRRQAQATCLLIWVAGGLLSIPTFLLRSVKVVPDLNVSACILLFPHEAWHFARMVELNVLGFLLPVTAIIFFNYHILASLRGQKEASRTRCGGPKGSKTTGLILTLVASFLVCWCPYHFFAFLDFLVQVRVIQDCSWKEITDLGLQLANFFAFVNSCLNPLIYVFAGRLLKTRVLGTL
TEST_DESCRIPTION: FLIPR Ca2+ assay on rat bradykinin 1 receptor (CHO K1 rB1R cells)
Assay type: cell-based
STUDY_CONDITIONS: test substance 10 μM; CHO K1 cells with B1R gene of rats; agonist Des-Arg9-bradykinin 100 nM; compared to maximum achievable inhibition

{"COMPOUND": "COc1cc(C)c(S(=O)(=O)N(C)CCOCC(=O)N2CCn3cccc3C2c2ccc(F)c(F)c2)c(C)c1 (centres unmarked)", "inhibition at 10 µM, %": 99}
{"COMPOUND": "COc1cc(C)c(S(=O)(=O)N(CCOCC(=O)N2CCn3cccc3C2C(C)C)Cc2ccccc2)c(C)c1C (centres unmarked)", "inhibition at 10 µM, %": 96}
{"COMPOUND": "COc1cc(C)c(S(=O)(=O)N(C)CCOCC(=O)N2CCn3cccc3C2c2cccc(F)c2)c(C)c1 (centres unmarked)", "inhibition at 10 µM, %": 99}
{"COMPOUND": "COc1cc(C)c(S(=O)(=O)N(C)CCOCC(=O)N2CCn3cccc3C2c2ccccc2)c(C)c1C (centres unmarked)", "inhibition at 10 µM, %": 99}
{"COMPOUND": "CCC1c2ccc(C)n2CCN1C(=O)COCCN(C)S(=O)(=O)c1c(C)cc(OC)cc1C (centres unmarked)", "inhibition at 10 µM, %": 102}

====

Entries annotated with measured inhibition at 10 µM
SYSTEM_UNDER_TEST: B1R receptor of rats (rB1R) (Rattus norvegicus)
Construct: host or cells: CHO K1 cells
TEST_DESCRIPTION: FLIPR Ca2+ assay on rat bradykinin 1 receptor (CHO K1 rB1R cells)
Assay type: cell-based
STUDY_CONDITIONS: test substance 10 μM; CHO K1 cells with B1R gene of rats; agonist Des-Arg9-bradykinin 100 nM; compared to maximum achievable inhibition

{"MOLECULE": "COc1cc(C)c(S(=O)(=O)N(C)CCOCC(=O)N2CCn3c(CN4CCCC4)ccc3C2)c(C)c1", "inhibition at 10 µM": "102%"}
{"MOLECULE": "COc1cc(C)c(S(=O)(=O)N(C)CCOCC(=O)N2CCn3cc(Cc4ccncc4)nc3C2)c(C)c1", "inhibition at 10 µM": "100%"}
{"MOLECULE": "Cc1cc(C)c(S(=O)(=O)N(C)CCOCC(=O)N2CCn3c(CN4CCCCC4)ccc3C2c2ccccc2)c(C)c1 (stereo not drawn)", "inhibition at 10 µM": "101%"}
{"MOLECULE": "COc1ccc(C2c3cccn3CCN2C(=O)COCCN(CC(C)C)S(=O)(=O)c2c(C)cc(OC)c(C)c2C)cc1 (stereo not drawn)", "inhibition at 10 µM": "97%"}
{"MOLECULE": "COc1c(C)cc(S(=O)(=O)N(C)CCOCC(=O)N2CCn3c(CN(C)C)ccc3C2c2ccccc2)c(C)c1C (stereo not drawn)", "inhibition at 10 µM": "100%"}
{"MOLECULE": "COc1cc(C)c(S(=O)(=O)N(C)CCOCC(=O)N2CCn3cccc3C2c2ccc(Cl)nc2)c(C)c1 (stereo not drawn)", "inhibition at 10 µM": "99%"}
{"MOLECULE": "COc1cc(C)c(S(=O)(=O)N(C)CCOCC(=O)N2CCn3cc(CCc4ccncc4)nc3C2)c(C)c1", "inhibition at 10 µM": "100%"}
{"MOLECULE": "Cc1cc(C)c(S(=O)(=O)N(C)CCOCC(=O)N2CCn3cccc3C2c2cccc(F)c2)c(C)c1 (stereo not drawn)", "inhibition at 10 µM": "99%"}
{"MOLECULE": "COc1c(C)cc(S(=O)(=O)N(C)CCOCC(=O)N2CCn3cccc3C2C)c(C)c1C (stereo not drawn)", "inhibition at 10 µM": "81%"}
{"MOLECULE": "COc1cccc(C2c3cccn3CCN2C(=O)COCCN(C)S(=O)(=O)c2c(C)cc(OC)cc2C)c1 (stereo not drawn)", "inhibition at 10 µM": "98%"}
{"MOLECULE": "COc1cc(C)c(S(=O)(=O)N(C)CCOCC(=O)N2CCn3c(CN4CCOCC4)ccc3C2)c(C)c1", "inhibition at 10 µM": "99%"}
{"MOLECULE": "COc1cc(C)c(S(=O)(=O)N(C)CCOCC(=O)N2CCn3cccc3C2CCc2ccccc2)c(C)c1C (stereo not drawn)", "inhibition at 10 µM": "98%"}
{"MOLECULE": "CCCC1c2cccn2CCN1C(=O)COCCN(C)S(=O)(=O)c1cc(C)c(OC)c(C)c1C (stereo not drawn)", "inhibition at 10 µM": "97%"}
{"MOLECULE": "COc1ccc(C2c3cccn3CCN2C(=O)COCCN(C)S(=O)(=O)c2c(C)cc(OC)c(C)c2C)cc1 (stereo not drawn)", "inhibition at 10 µM": "100%"}
{"MOLECULE": "COc1cccc(C2c3cccn3CCN2C(=O)COCCN(C)S(=O)(=O)c2c(C)cc(OC)c(C)c2C)c1 (stereo not drawn)", "inhibition at 10 µM": "98%"}
